Molecular target: PD-1/PD-L1 (Homo sapiens, UniProt Q9NZQ7)
Sequence (Q9NZQ7 19-238 limits assumed): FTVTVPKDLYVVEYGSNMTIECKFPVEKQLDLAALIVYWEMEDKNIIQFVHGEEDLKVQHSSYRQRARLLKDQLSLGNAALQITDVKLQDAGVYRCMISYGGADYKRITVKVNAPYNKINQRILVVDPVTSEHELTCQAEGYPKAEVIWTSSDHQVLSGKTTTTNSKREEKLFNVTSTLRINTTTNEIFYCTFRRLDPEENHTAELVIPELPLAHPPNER
Experiment: TR-FRET PD-1/PD-L1 binding inhibition at the molecular level (free proteins)
Details: Tag1-PD-L1 and Tag2-PD-1 proteins, twelve concentrations from 200 nM, 2 hours at room temperature, read-out: FRET assay (IC50)
pIC50: −log10 of the molar value.
Readout: pIC50

Completed entries (count: 5):
Cc1c(NC(=O)c2cc3n(n2)CCCC3NCCO)cccc1-c1cccc(-c2cc3n(n2)CCCC3NCCO)c1C (stereo not drawn) [Compound 158]: 7.00 to 8.00
Cc1c(NC(=O)c2cc3n(n2)CCC[C@@H]3N2CCC(O)CC2)cccc1-c1cccc(Nc2nc(C(F)(F)F)nc3cccnc23)c1C (stereo in doubt) [Compound 286]: 7.00 to 8.00
Cn1c(C(=O)Nc2cccc(-c3cccc(NC(=O)c4cc5n(n4)CCCC5NCC(=O)O)c3Cl)c2Cl)nc2c1CCN(CCC13CCC(C(=O)O)(CC1)C3)C2 (stereo not drawn) [Compound 56]: > 8.00
O=C(Nc1cccc(-c2cccc(Nc3nccc4cc(CN5CC[C@@H](O)C5)cnc34)c2Cl)c1Cl)c1cc2n(n1)CCCC2NC1CCOCC1 (stereo partly drawn) [Compound 231]: 7.00 to 8.00
CN[C@H]1CCCn2nc(C(=O)Nc3cccc(-c4cccc(Nc5nc(C(F)F)nc6cc(CN7CC[C@@H](O)C7)cnc56)c4Cl)c3Cl)cc21 [Compound 354]: 7.00 to 8.00

API: the following record is the query input.
What is its pIC50 for PD-1/PD-L1 (Homo sapiens, UniProt Q9NZQ7)? Entry: O=C(Nc1cccc(-c2cccc(NC(=O)c3cc4n(n3)CCC[C@@H]4N3CC[C@@H](C(=O)O)C3)c2Cl)c1Cl)c1ccc(CNCCO)cn1 [Compound 208] > 8.00

----------
System: PD-1/PD-L1
Test: PD-1/PD-L1 blockade bioassay at the cellular level (PD-L1 aAPC/CHO-K1 cells + PD-1 Effector T cells, luciferase)
Format: cell-based
Conditions: Homo sapiens, T-cell; PD-L1 aAPC/CHO-K1 cells with PD-1 Effector T cells, 6 hours, luminescence; read-out: PD-1/PD-L1 Inhibitory Activity EC50
Method: In order to evaluate the effect of the compounds of the present invention, synthesized according to the above Preparation Examples, on blocking signal transduction between PD-1/PD-L1-expressing cells, a PD-1/PD-L1 blockade bioassay was conducted as described below. Specifically, PD-L1 aAPC/CHO-K1 cells engineered to express human PD-L1 were seeded into a 96-well white plate and cultured for one day. […]
Readout: pEC50
pEC50 here: minus log base 10 of the concentration, concentration in moles per litre.

Form field: reported pEC50 of Cc1c(NC(=O)c2ccc(CN3CC[C@@H](O)C3)cn2)cccc1-c1cccc(NC(=O)c2cc3n(n2)CCC[C@@H]3N2CC[C@@H](O)C2)c1C 7.50

// query pEC50 value for entry O=C(Nc1cccc(-c2cccc(NC(=O)c3cc4n(n3)CCC[C@@H]4N3CC[C@@H](C(=O)O)C3)c2Cl)c1Cl)c1ccc(CNCCO)cn1 7.90

What value of pEC50 has been reported for the following molecule? O=C(Nc1cccc(-c2cccc(Nc3nccc4cc(CN5CC[C@H](O)C5)cnc34)c2Cl)c1Cl)c1cc2n(n1)CCC[C@H]2N1CCC(C(=O)O)CC1 7.69

// query pEC50 value for entry O=C(Nc1cccc(-c2cccc(NC(=O)c3cc4n(n3)CCC[C@@H]4NCCO)c2Cl)c1Cl)c1ccc(CNCCO)cn1 7.80

// pEC50 lookup, key: Cc1c(NC(=O)c2ccc(CN3CC[C@@H](O)C3)cn2)cccc1-c1cccc(NC(=O)c2cc3n(n2)CCC[C@H]3N2CC[C@@H](O)C2)c1C 6.60

Reported pEC50, molecule O=C(O)CN[C@H]1CCCn2nc(C(=O)Nc3cccc(-c4cccc(NC(=O)c5ccc(CN6CC[C@@H](O)C6)cn5)c4Cl)c3Cl)cc21 : ____ 7.46

I would be grateful if you could share the reported pEC50 for O=C(O)CN[C@H]1CCCn2nc(C(=O)Nc3cccc(-c4cccc(NC(=O)c5ccc(CNCCO)cn5)c4Cl)c3Cl)cc21 . 7.87

The values you see were collected from patent EP4755888A1.
